target: Vascular endothelial growth factor receptor 2 (Homo sapiens) (UniProt P35968); conditions: at 0.1 µM
Sequence (P35968 whole entry): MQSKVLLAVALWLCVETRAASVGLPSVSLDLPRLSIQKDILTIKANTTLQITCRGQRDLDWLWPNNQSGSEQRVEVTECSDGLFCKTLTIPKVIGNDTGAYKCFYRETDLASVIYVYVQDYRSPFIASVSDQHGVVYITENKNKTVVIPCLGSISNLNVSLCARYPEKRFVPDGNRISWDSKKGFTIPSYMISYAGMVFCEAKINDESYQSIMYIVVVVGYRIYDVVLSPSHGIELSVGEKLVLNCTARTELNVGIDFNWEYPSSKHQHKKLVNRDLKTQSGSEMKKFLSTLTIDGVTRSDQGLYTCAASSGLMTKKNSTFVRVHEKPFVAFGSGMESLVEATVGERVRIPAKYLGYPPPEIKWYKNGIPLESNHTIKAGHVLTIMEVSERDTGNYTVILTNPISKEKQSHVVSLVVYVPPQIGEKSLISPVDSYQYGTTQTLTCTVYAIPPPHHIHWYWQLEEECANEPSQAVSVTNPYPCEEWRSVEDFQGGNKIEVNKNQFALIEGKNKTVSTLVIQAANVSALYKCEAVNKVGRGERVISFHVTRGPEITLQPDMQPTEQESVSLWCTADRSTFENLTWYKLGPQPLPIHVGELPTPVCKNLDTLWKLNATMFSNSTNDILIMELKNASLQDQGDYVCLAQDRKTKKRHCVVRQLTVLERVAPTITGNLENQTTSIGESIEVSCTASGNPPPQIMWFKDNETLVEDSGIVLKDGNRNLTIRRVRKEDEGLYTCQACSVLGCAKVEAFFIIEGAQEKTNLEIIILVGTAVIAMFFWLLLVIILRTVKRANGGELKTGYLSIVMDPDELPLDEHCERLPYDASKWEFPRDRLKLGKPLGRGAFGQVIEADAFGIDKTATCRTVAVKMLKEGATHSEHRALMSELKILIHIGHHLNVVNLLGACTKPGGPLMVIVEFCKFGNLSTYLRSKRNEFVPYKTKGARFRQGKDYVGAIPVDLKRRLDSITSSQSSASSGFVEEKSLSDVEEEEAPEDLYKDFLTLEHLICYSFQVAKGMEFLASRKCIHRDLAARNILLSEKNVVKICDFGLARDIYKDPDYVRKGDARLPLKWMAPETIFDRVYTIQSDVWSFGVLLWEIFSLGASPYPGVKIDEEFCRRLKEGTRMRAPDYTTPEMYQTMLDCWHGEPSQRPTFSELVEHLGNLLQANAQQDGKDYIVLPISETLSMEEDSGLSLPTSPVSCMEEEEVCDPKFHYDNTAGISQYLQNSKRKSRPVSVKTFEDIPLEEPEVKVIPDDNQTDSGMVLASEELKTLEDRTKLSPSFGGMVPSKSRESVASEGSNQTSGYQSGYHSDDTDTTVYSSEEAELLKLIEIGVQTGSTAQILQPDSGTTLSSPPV
Description: GSK_PKIS: KDR mean inhibition at 0.1 uM [Nanosyn]
So basically: inhibition at 5% or higher? That is met. Lower than 5%? That is not met.

Enquiry: Determine whether measured inhibition meets or exceeds 5% for `CCc1nn2ncccc2c1-c1ccnc(NC2CC2)n1`
Return: not met

Enquiry: Tell me whether inhibition is at least 5% here: `NS(=O)(=O)c1ccc(N/N=C2\C(=O)Nc3ccc4ncccc4c32)cc1`
Return: met

Enquiry: Answer whether inhibition of `CNC(=O)c1cncc(/C=C/c2ccccc2Cl)c1` is greater than or equal to 5%.
Return: not met

Enquiry: Could you verify whether the entry `CCn1c(-c2nonc2N)nc2c(C#CC(C)(C)O)ncc(OC3CCNCC3)c21` shows inhibition of no less than 5%?
Return: met

Enquiry: Would you say `Fc1cccc(COc2ccc(Nc3ncnc4sc(-c5ccco5)cc34)cc2Cl)c1` shows inhibition at minimum 5%?
Return: not met

Enquiry: Confirm if inhibition reported for the compound `CCNC(=O)O[C@H]1CN[C@H](C#Cc2cc3ncnc(Nc4ccc(OCc5cccc(F)c5)c(Cl)c4)c3s2)C1` is 5% or above.
Return: met

Enquiry: Identify whether the reported inhibition of the following compound is 5% or greater: `COc1ccc(-c2nn3ncccc3c2-c2ccnc(Nc3ccc4c(c3)OCCO4)n2)cc1`
Return: met

Enquiry: Hello, I need to know if `CN1CCC(n2cnc(-c3ccc(F)cc3)c2-c2ccnc(N)n2)CC1` has measured inhibition not below 5%. Thanks!
Return: not met

Enquiry: Item `[O-][S+]1CCN(Cc2ccc(-c3ccc4ncnc(Nc5ccc(OCc6cccc(F)c6)c(Cl)c5)c4c3)o2)CC1` with inhibition of 5% or above?
Return: met

src = ChEMBL document CHEMBL1961873
